- assay-details: protein stability index of a GFP-peptide fusion (yeast GPS) (PSI 1-4); higher = more stable; sorted into four equal gates, so the index is relative within each strain
- measurement-setup: pdr5∆
Some sequences, each annotated with its measured protein stability index.
Number only, no unit.

Here's what some known entries look like.
SVVSQIEKGSTFGINLI [FAS1] = 3.06
FGIYILTQGINGKEVPL [MED1] = 1.45
NPASATDNMSGRGLWNP [YJL039C/NUP192] = 3.1
THFLLNIYDQLRNKLIE [RRP6] = 2.69
VLKYMLLSKIMLNLIDD [RPN6] = 1.49
EQRHLKRELKRAQEEVK [RPT3] = 3.37

// lookup protein stability index for GVLYQGNIQISEYNFLE [DIS3]
3.05

// lookup protein stability index for HGAFMDIIWLQRDLGLY [RRP6]
1.49

// lookup protein stability index for PTESYLQYIIHDTLNNE [BRR2]
2.43

====

- assay-details: protein stability index of a GFP-peptide fusion (yeast GPS) (PSI 1-4); higher = more stable; sorted into four equal gates, so the index is relative within each strain
- measurement-setup: ubr1∆
measured-parameter: protein stability index
Number only, no unit.

MSNTLFDDIFQVSEVDP [RPB8] = 3.08

Now consider a different sequence.
// lookup protein stability index for TGNNNNIATQQNMQQSL [GAL11]
2.59

====

- assay-details: protein stability index of a GFP-peptide fusion (yeast GPS) (PSI 1-4); higher = more stable; sorted into four equal gates, so the index is relative within each strain
- measurement-setup: doa10∆
measured-parameter: protein stability index
Number only, no unit.

SKNSPAEDDVIIPQDIL [YJR042W/NUP85] = 3.19
KIRCFRYISTLTLYLFQ [IRR1] = 1.69
KKDVEKELPDKVEKVVK [SNF2] = 3.52

// lookup protein stability index for SNNITSGLNRAISTGNW [RET1]
3.13

// lookup protein stability index for RTDATFIRVIGSELVQK [RPT1]
3.2

// lookup protein stability index for TSHYQNYHPNASITPYK [RPN4]
2.84

// lookup protein stability index for ETLGDILKRDFELVSDL [ECM29]
3.27

// lookup protein stability index for LREKEDKKNSSDPNNQS [YJL039C/NUP192]
3.06

// lookup protein stability index for DIPGVRFKVVKVSGVSL [RPS23A]
1.62

// lookup protein stability index for FVSRIPIMFQDFDDSTA [IRR1]
2.1

// lookup protein stability index for TVQLTFLIDVLKIYAQI [YCG1]
1.58

// lookup protein stability index for SNRCIVFSKKEPFPHSK [CSN12]
2.58

// lookup protein stability index for GQSSSIQSSLMTNLTYF [YCS4]
2.86

====

- assay-details: protein stability index of a GFP-peptide fusion (yeast GPS) (PSI 1-4); higher = more stable; sorted into four equal gates, so the index is relative within each strain
- measurement-setup: san1∆
Some sequences, each annotated with its measured protein stability index.
Number only, no unit.

Here's what some known entries look like.
AGIVPVSANTPKSLNSN [SWI1] = 3.04
PKKYKENNTDSARKELE [SMC1] = 3.09
LEQREQNENLPSDKSDS [SSN2] = 3.04
QKKRVVDPFTRKEWFDI [RPS1A] = 3.03
TQPKAEATQDDDFDMLF [NUT1] = 2.99

// lookup protein stability index for NGQSLSPVRSDSADVPA [YMR153W/NUP53]
3.09

// lookup protein stability index for MDPGAPLPVETPRDRRK [SSN2]
3.25

// lookup protein stability index for LEKGEIELSDGSTFKVN [YJL039C/NUP192]
2.83

// lookup protein stability index for VENWIIDDKGVLMERKD [ITC1]
3.09

// lookup protein stability index for KKEEEEQLSEEDAKLKT [RPN1]
3.34

====

- assay-details: protein stability index of a GFP-peptide fusion (yeast GPS) (PSI 1-4); higher = more stable; sorted into four equal gates, so the index is relative within each strain
- measurement-setup: pdr5∆
measured-parameter: protein stability index
Number only, no unit.

MGKGKPRGLNSARKLRV [RPS23A] = 3.05
LSMNIAPRLRLEDIFQQ [RET1] = 1.92

// lookup protein stability index for LDLMFDEVYVQNSKFLK [YJL039C/NUP192]
2.94

// lookup protein stability index for DDLEKTLDKKDSIPLRI [RPN9]
2.3

// lookup protein stability index for ENSANSTVASALDTNGT [SIR4]
3.18

// lookup protein stability index for RLAEFKRRKLDLNNAVQ [SMC4]
2.87

// lookup protein stability index for TNVYSKDLVIVSNLMGR [RPB3]
2.97

// lookup protein stability index for SSVNEDTFLPPPPPPPS [PRP8]
2.72

// lookup protein stability index for SVLLQQLLTPGSKISSN [YGL172W/NUP49]
2.83

// lookup protein stability index for ISAEDRADTDLAMNDDD [SNF2]
3.45

// lookup protein stability index for KQYLSASFSLKNGDKPH [RPL6A]
1.93

// lookup protein stability index for ELKEITSLPDWCQEAFP [BRR2]
2.73

// lookup protein stability index for GCEANIHSLVKQRLDLA [YIL149C/MLP2]
3.19

// lookup protein stability index for YKTSKAAQDVWNRADNH [FAS1]
2.98

// lookup protein stability index for VQQFAQLPVGFKNMGNT [UBP6]
1.74

// lookup protein stability index for DPNEVKYLYLRAVGGEV [RPL12A]
1.89

====

Some sequences, each annotated with its measured protein stability index.
- assay-details: protein stability index of a GFP-peptide fusion (yeast GPS) (PSI 1-4); higher = more stable; sorted into four equal gates, so the index is relative within each strain
- measurement-setup: pdr5∆
Number only, no unit.

Here's what some known entries look like.
FKATIQILQGICKNCSA [RPO31] = 1.77
INPESREIVMPAHTKYM [ITC1] = 1.5
WTEKKGKNVINRERFIS [SMD2] = 1.54
SVPLVIGQFLEPIDQNT [RPT3] = 2.77
IEAIDEYNKPNSEKFVF [ISW2] = 2.76
SNYSRTMTISHLLLGFQ [YJL039C/NUP192] = 1.69
NNIIRIQQLISQFLKRV [SNF11] = 2.14
NLDSSITQDGKFAYKID [YMR129W/POM152] = 2.69

// lookup protein stability index for ILHVRAQYCYKNGLYQE [SRP72]
2.94

====

- assay-details: protein stability index of a GFP-peptide fusion (yeast GPS) (PSI 1-4); higher = more stable; sorted into four equal gates, so the index is relative within each strain
- measurement-setup: pdr5∆
measured-parameter: protein stability index
Number only, no unit.

Here's what some known entries look like.
LSLYSTDLENSSLFQEK [ECM29] = 2.81
QFDIQSPLYMDTETFDT [YML103C/NUP188] = 2.88
DQNEFLLERTREIHNEA [FAS2] = 3.13
KFPTRKIYMLYSLQPSV [RPC34] = 2.13

Now consider a different sequence.
// lookup protein stability index for IESFVELGVSIYDFPGT [NUT2]
3.07

====

- assay-details: protein stability index of a GFP-peptide fusion (yeast GPS) (PSI 1-4); higher = more stable; sorted into four equal gates, so the index is relative within each strain
- measurement-setup: doa10∆
Some sequences, each annotated with its measured protein stability index.
Number only, no unit.

Here's what some known entries look like.
NVANVSGSTEKAFKICE [SIR3] = 2.96
RFDAQTGSDREVQRILI [RPT3] = 3.09
LSSDEKRELLKRYRLKE [RPB5] = 3.08
TGEWFSSYEEFLERFDF [ITC1] = 2.99

// lookup protein stability index for LEFSALSAADIVAQSEV [RPO31]
3.01

// lookup protein stability index for KVAQLRQTGPAKINEVY [NSL1]
2.97

// lookup protein stability index for MLLLNIFISSDHEFVLI [YMR129W/POM152]
1.64

// lookup protein stability index for FQIDNDNIRYATALQTC [SMC2]
1.8

// lookup protein stability index for TELRQLFQENDDDDDDD [DSN1]
2.03

// lookup protein stability index for NESWKSSFEKFNDSQAI [SRP72]
2.96

// lookup protein stability index for AMHYSSNIELAFSSVEH [COB]
1.93

// lookup protein stability index for SSLALVFALHKYKPTPL [SMC4]
2.18

// lookup protein stability index for VGRQDPKKHLSETADET [RPN11]
3.17

// lookup protein stability index for GEENRVRFIGDSVAAIG [QCR2]
3.3

// lookup protein stability index for VHNTNSFIISSLDTLEL [NUT1]
2

// lookup protein stability index for MTLLTDSLRKLYVDSES [MTW1]
1.45

====

- assay-details: protein stability index of a GFP-peptide fusion (yeast GPS) (PSI 1-4); higher = more stable; sorted into four equal gates, so the index is relative within each strain
- measurement-setup: doa10∆
measured-parameter: protein stability index

Here's what some known entries look like.
QGGAMNKKSEQALDISK [SRP72] = 3.07
ELGVSIYDFPGTPEATK [NUT2] = 2.92
MLQKKLVEVEDEKIEAI [SRB7] = 3
QDIYYLAQTLKLWRKIA [RRI2] = 2.04
LGRLNKLRKIAISKKNK [LIN1] = 2

// lookup protein stability index for KETQQYELEFDTPTSGK [BRR2]
2.99

// lookup protein stability index for LFVCNKDPDVPLVLLQQ [POP3]
2.57
